- Assayed target: T1, PSMA Fab
- T1 construct: also called Anti-PSMA Fab; 006 PSMA Fab
- Experiment description: phage binding ELISA; biotinylated PSMA Fab on neutravidin plate, wells pre-incubated with PSMA antigen as competitor, clonal phage supernatant, anti-M13 HRP detection
Where no end group is shown, it is not given here.
I'd appreciate it if you could supply Phage binding ELISA signal, Anti-PSMA Fab in presence of PSMA values for the items below.
Output: the number by itself.

input: Would you kindly share the measured Phage binding ELISA signal, Anti-PSMA Fab in presence of PSMA for DHHICRPAWMCMGL (cysteine pairing not given here; also: fused to phage pIII, linker and order not given here, Peptide-180 library clone, tested as clonal phage supernatant; not shown: pIII filament protein of the bacteriophage, to which the peptide is fused) [Phage-3209] ?
output: 0.0876

input: Would you kindly share the measured Phage binding ELISA signal, Anti-PSMA Fab in presence of PSMA for TVPLCKPLWMCYGF (cysteine pairing not given here; also: fused to phage pIII, linker and order not given here, Peptide-180 library clone, tested as clonal phage supernatant; not shown: pIII filament protein of the bacteriophage, to which the peptide is fused) [Phage-3212] ?
output: 0.184

input: Would you kindly share the measured Phage binding ELISA signal, Anti-PSMA Fab in presence of PSMA for VVPLCIPQWMCAVF (cysteine pairing not given here; also: fused to phage pIII, linker and order not given here, Peptide-180 library clone, tested as clonal phage supernatant; not shown: pIII filament protein of the bacteriophage, to which the peptide is fused) [Phage-3201] ?
output: 0.0757

input: Would you kindly share the measured Phage binding ELISA signal, Anti-PSMA Fab in presence of PSMA for VVVSCIPTWMCVGF (cysteine pairing not given here; also: fused to phage pIII, linker and order not given here, Peptide-180 library clone, tested as clonal phage supernatant; not shown: pIII filament protein of the bacteriophage, to which the peptide is fused) [Phage-3202] ?
output: 0.103
